This collection of values is drawn from patent US20260130395A1.

assay: Stability of cannabinoid entourage and Vitamin E components of the powder concentrate by LCMSMS; format: physicochemical; conditions: powder stored at 21-25° C.; 330 days
Known Stability of Plant-Derived Cannabinoid Compounds in Powder Concentrate of a selection of molecules
Express the result in mg/g powder but write the number alone.

[
  {
    "MOLECULE": "C=C(C)[C@@H]1CCC(C)=C[C@H]1c1c(O)cc(CCCCC)cc1O [CBD, cannabidiol, reference compound]",
    "UNIT OF MEASUREMENT": "mg/g powder",
    "NUMERIC RESULT": 6.01
  },
  {
    "MOLECULE": "C=C(C)[C@@H]1CCC(C)=C[C@H]1c1c(O)cc(CCC)cc1O",
    "UNIT OF MEASUREMENT": "mg/g powder",
    "NUMERIC RESULT": 0.052
  }
]

Next molecule, Stability of Plant-Derived Cannabinoid Compounds in Powder Concentrate to be filled in.
What value of Stability of Plant-Derived Cannabinoid Compounds in Powder Concentrate has been reported for the following molecule? CCCCCc1cc(O)c2c(c1)OC1(C)CCC3C1C2C3(C)C (stereo not drawn)
0.049

* * *

experiment: Stability of cannabinoid compounds and Vitamin E components in Beverage 2 (AB Red) by LCMSMS; assay type: physicochemical; conditions: stored at 8° C., 120 days
Classification scheme (Stability of Plant-Derived Cannabinoid Compounds in AB Red): class 0 (below 0.5 µg/mL), class 1 (0.5 µg/mL to below 3 µg/mL), class 2 (3 µg/mL or more)

Please review the entries below; each comes with its answer.
[
  {
    "COMPOUND": "CCCCCc1cc(O)c2c(c1)OC(C)(C)[C@@H]1CCC(C)=C[C@@H]21 [D9 THC, delta-9-tetrahydrocannabinol, reference compound]",
    "ANSWER LABEL": "class 2"
  },
  {
    "COMPOUND": "CCCCCc1cc2c(c(O)c1C(=O)O)[C@@H]1C=C(C)CC[C@H]1C(C)(C)O2 [D9 THCA, delta-9-tetrahydrocannabinolic acid]",
    "ANSWER LABEL": "class 1"
  },
  {
    "COMPOUND": "C=C(C)[C@@H]1CCC(C)=C[C@H]1c1c(O)cc(CCC)cc1O",
    "ANSWER LABEL": "class 0"
  },
  {
    "COMPOUND": "C=C(C)[C@@H]1CCC(C)=C[C@H]1c1c(O)cc(CCCCC)c(C(=O)O)c1O",
    "ANSWER LABEL": "class 1"
  },
  {
    "COMPOUND": "CCCCCc1cc(O)c2c(c1)OC(C)(CCC=C(C)C)C=C2 (stereo not drawn)",
    "ANSWER LABEL": "class 0"
  },
  {
    "COMPOUND": "CCCCCc1cc(O)c2c(c1)OC(C)(C)c1ccc(C)cc1-2",
    "ANSWER LABEL": "class 1"
  },
  {
    "COMPOUND": "CCCCCc1cc(O)c(C/C=C(\\C)CCC=C(C)C)c(O)c1",
    "ANSWER LABEL": "class 2"
  }
]

Let's switch to this compound now.
Lab note: which band did CCCc1cc(O)c2c(c1)OC(C)(C)[C@@H]1CCC(C)=C[C@@H]21 [THCV, delta-9-tetrahydrocannabivarin] land in?
class 2

* * *

assay: Stability of cannabinoid compounds and Vitamin E components in Beverage 1 (AB White) by LCMSMS; format: physicochemical; conditions: AB White stored at 8° C.; 3 days
Known Stability of Plant-Derived Cannabinoid Compounds in AB White, 8° C. of a selection of molecules

Example entries begin here.
[
  {
    "MOLECULE": "CCCCCc1cc(O)c(C/C=C(\\C)CCC=C(C)C)c(O)c1",
    "RESULT": "4.74 µg/mL"
  },
  {
    "MOLECULE": "CCCc1cc(O)c2c(c1)OC(C)(C)[C@@H]1CCC(C)=C[C@@H]21 [THCV, delta-9-tetrahydrocannabivarin]",
    "RESULT": "3.55 µg/mL"
  }
]

What value of Stability of Plant-Derived Cannabinoid Compounds in AB White, 8° C. has been reported for the following molecule? CCCCCc1cc(O)c2c(c1)OC1(C)CCC3C1C2C3(C)C (stereo not drawn)
0.553 µg/mL

* * *

assay: Stability of cannabinoid compounds and Vitamin E components in Beverage 2 (AB Red) by LCMSMS; assay type: physicochemical; settings: stored at 21-25° C., 390 days
MEASURE: Stability of Plant-Derived Cannabinoid Compounds in AB Red (µg/mL)
Express the result in µg/mL but write the number alone.

[
  {
    "MOLECULE": "C=C(C)[C@@H]1CCC(C)=C[C@H]1c1c(O)cc(CCC)cc1O [CBDV, cannabidivarin]",
    "NUMERIC RESULT": 0.19
  },
  {
    "MOLECULE": "C=C(C)[C@@H]1CCC(C)=C[C@H]1c1c(O)cc(CCCCC)c(C(=O)O)c1O [CBDA, cannabidiolic acid]",
    "NUMERIC RESULT": 1.61
  },
  {
    "MOLECULE": "CCCCCc1cc(O)c2c(c1)OC(C)(C)[C@@H]1CCC(C)=C[C@@H]21 [D9 THC, delta-9-tetrahydrocannabinol, reference compound]",
    "NUMERIC RESULT": 12.1
  },
  {
    "MOLECULE": "CCCCCc1cc(O)c(C/C=C(\\C)CCC=C(C)C)c(O)c1 [CBG, cannabigerol]",
    "NUMERIC RESULT": 4.57
  },
  {
    "MOLECULE": "CCCc1cc(O)c2c(c1)OC(C)(C)[C@@H]1CCC(C)=C[C@@H]21 [THCV, delta-9-tetrahydrocannabivarin]",
    "NUMERIC RESULT": 3.04
  }
]

What value of Stability of Plant-Derived Cannabinoid Compounds in AB Red has been reported for the following molecule? CCCCCc1cc(O)c2c(c1)OC(C)(C)c1ccc(C)cc1-2 [CBN, cannabinol]
2.65

What value of Stability of Plant-Derived Cannabinoid Compounds in AB Red has been reported for the following molecule? CCCCCc1cc(O)c2c(c1)OC(C)(CCC=C(C)C)C=C2 (stereo not drawn) [CBC, cannabichromene]
0.28

What value of Stability of Plant-Derived Cannabinoid Compounds in AB Red has been reported for the following molecule? CCCCCc1cc2c(c(O)c1C(=O)O)[C@@H]1C=C(C)CC[C@H]1C(C)(C)O2 [D9 THCA, delta-9-tetrahydrocannabinolic acid]
1.26

What value of Stability of Plant-Derived Cannabinoid Compounds in AB Red has been reported for the following molecule? CCCCCc1cc(O)c2c(c1)OC1(C)CCC3C1C2C3(C)C (stereo not drawn) [CBL, cannabicyclol]
0.49

* * *

Known Stability of Plant-Derived Cannabinoid Compounds in AB White, 8° C. of a selection of molecules
experiment: Stability of cannabinoid compounds and Vitamin E components in Beverage 1 (AB White) by LCMSMS; type: physicochemical; conditions: AB White stored at 8° C.; 390 days
Express the result in µg/mL but write the number alone.

[
  {
    "MOLECULE": "C=C(C)[C@@H]1CCC(C)=C[C@H]1c1c(O)cc(CCC)cc1O [CBDV, cannabidivarin]",
    "NUMERIC RESULT": 0.143
  },
  {
    "MOLECULE": "CCCCCc1cc(O)c2c(c1)OC(C)(C)c1ccc(C)cc1-2 [CBN, cannabinol]",
    "NUMERIC RESULT": 2.67
  },
  {
    "MOLECULE": "CCCCCc1cc(O)c2c(c1)OC1(C)CCC3C1C2C3(C)C (stereo not shown) [CBL, cannabicyclol]",
    "NUMERIC RESULT": 0.535
  },
  {
    "MOLECULE": "C=C(C)[C@@H]1CCC(C)=C[C@H]1c1c(O)cc(CCCCC)c(C(=O)O)c1O [CBDA, cannabidiolic acid]",
    "NUMERIC RESULT": 1.70
  },
  {
    "MOLECULE": "C=C(C)[C@@H]1CCC(C)=C[C@H]1c1c(O)cc(CCCCC)cc1O [CBD, cannabidiol, reference compound]",
    "NUMERIC RESULT": 27.50
  },
  {
    "MOLECULE": "CCCc1cc(O)c2c(c1)OC(C)(C)[C@@H]1CCC(C)=C[C@@H]21 [THCV, delta-9-tetrahydrocannabivarin]",
    "NUMERIC RESULT": 3.47
  },
  {
    "MOLECULE": "CCCCCc1cc2c(c(O)c1C(=O)O)[C@@H]1C=C(C)CC[C@H]1C(C)(C)O2 [D9 THCA, delta-9-tetrahydrocannabinolic acid]",
    "NUMERIC RESULT": 0.923
  },
  {
    "MOLECULE": "CCCCCc1cc(O)c2c(c1)OC(C)(CCC=C(C)C)C=C2 (stereo not shown) [CBC, cannabichromene]",
    "NUMERIC RESULT": 0.310
  },
  {
    "MOLECULE": "CCCCCc1cc(O)c2c(c1)OC(C)(C)[C@@H]1CCC(C)=C[C@@H]21 [D9 THC, delta-9-tetrahydrocannabinol, reference compound]",
    "NUMERIC RESULT": 11.85
  }
]

What value of Stability of Plant-Derived Cannabinoid Compounds in AB White, 8° C. has been reported for the following molecule? CCCCCc1cc(O)c(C/C=C(\C)CCC=C(C)C)c(O)c1 [CBG, cannabigerol]
4.68
